# pIC50 per record follows
target: human NLRP3 (Homo sapiens, UniProt Q96P20); test: Human PBMC NLRP3 Assay (LPS priming, ATP stimulation, cytokine measurement); format: cell-based; parameters: host or cells: human PBMCs (A2); human whole blood from healthy volunteers (A3); settings: Table B, activity class; human PBMC, LPS + ATP
Sequence (Q96P20 whole entry): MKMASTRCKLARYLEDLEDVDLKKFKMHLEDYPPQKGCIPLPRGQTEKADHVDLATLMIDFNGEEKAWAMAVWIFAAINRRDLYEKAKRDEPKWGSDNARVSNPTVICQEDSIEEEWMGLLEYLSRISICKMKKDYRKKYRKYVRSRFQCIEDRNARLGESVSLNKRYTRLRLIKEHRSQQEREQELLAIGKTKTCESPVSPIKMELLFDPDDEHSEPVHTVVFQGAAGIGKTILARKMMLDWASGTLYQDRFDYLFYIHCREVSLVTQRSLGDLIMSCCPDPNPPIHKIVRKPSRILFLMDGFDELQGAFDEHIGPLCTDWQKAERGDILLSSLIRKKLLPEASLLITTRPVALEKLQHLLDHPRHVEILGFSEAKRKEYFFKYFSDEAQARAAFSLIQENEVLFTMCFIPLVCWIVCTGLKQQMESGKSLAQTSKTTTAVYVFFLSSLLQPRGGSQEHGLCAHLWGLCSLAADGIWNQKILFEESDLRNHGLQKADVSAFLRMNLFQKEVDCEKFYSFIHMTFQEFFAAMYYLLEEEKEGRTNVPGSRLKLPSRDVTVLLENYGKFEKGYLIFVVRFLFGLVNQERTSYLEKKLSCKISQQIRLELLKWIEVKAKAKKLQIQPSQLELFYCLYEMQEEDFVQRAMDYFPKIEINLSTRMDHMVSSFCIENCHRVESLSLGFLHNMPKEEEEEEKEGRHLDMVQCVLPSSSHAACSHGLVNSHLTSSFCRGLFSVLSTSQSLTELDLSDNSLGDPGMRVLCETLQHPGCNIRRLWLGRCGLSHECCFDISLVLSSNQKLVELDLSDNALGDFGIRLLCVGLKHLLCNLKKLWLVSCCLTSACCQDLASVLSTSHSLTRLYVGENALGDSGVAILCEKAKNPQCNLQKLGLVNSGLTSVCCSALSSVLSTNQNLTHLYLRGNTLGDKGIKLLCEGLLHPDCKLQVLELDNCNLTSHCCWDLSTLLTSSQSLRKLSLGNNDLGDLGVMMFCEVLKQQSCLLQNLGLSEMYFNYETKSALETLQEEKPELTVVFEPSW
pIC50: −log10 of the molar value.
endpoint label: pIC50

[
  {
    "molecule": "C[C@@H]1C[C@@H](NC(=O)N(C)c2ccc(C(F)(F)F)c(F)c2)[C@H]2CC[C@@H]1N2c1nnn[nH]1 (single isomer, unassigned) [49A*]",
    "experimental result": "7.00 to 8.00"
  },
  {
    "molecule": "CCN(C(=O)N[C@@H]1C[C@H](C)CCN(c2nnn[nH]2)C1)c1ccc(OC(F)(F)F)cc1 (single isomer, unassigned) [43A*]",
    "experimental result": "> 8.00"
  },
  {
    "molecule": "C[C@@H]1C[C@@H](NC(=O)N(C)c2c(F)cc(OC(F)(F)F)cc2F)[C@H]2CC[C@@H]1N2c1nnn[nH]1 (single isomer, unassigned) [62A*]",
    "experimental result": "7.00 to 8.00"
  }
]

* * *

molecular target: human NLRP3 (Homo sapiens, UniProt Q96P20); test: Scintillation Proximity (SPA) NLRP3 Assay, displacement of 3H-MCC950; assay type: binding; conditions: Table B, activity class; displacement of 3H-MCC950 from human NLRP3

[
  {
    "molecule": "C[C@H]1C[C@@H](NC(=O)N(C)c2ccc(OC(F)F)cc2F)[C@@H]2CC[C@H]1N2c1nnn[nH]1 (single isomer, unassigned) [57C*]",
    "tgt": "human NLRP3 (Homo sapiens, UniProt Q96P20)",
    "IC50": "50 to 100 µM"
  },
  {
    "molecule": "C[C@H]1CCN(c2nnn[nH]2)C[C@@H](NC(=O)N(C)c2ccc(Cl)nc2)C1 (single isomer, unassigned) [29D*]",
    "tgt": "human NLRP3 (Homo sapiens, UniProt Q96P20)",
    "IC50": "10 to 50 µM"
  },
  {
    "molecule": "C[C@H]1C[C@@H](NC(=O)N(C)c2ccc(C3CC3)c(F)c2)[C@@H]2CC[C@H]1N2c1nnn[nH]1 (single isomer, unassigned) [54C*]",
    "tgt": "human NLRP3 (Homo sapiens, UniProt Q96P20)",
    "IC50": "> 100 µM"
  },
  {
    "molecule": "C[C@H]1C[C@H](NC(=O)N(C)c2ccc(OC(F)F)c(F)c2F)[C@@H]2CC[C@H]1N2c1nnn[nH]1 (single isomer, unassigned) [58D*]",
    "tgt": "human NLRP3 (Homo sapiens, UniProt Q96P20)",
    "IC50": "10 to 50 µM"
  },
  {
    "molecule": "C[C@@H]1C[C@@H](NC(=O)N(C)c2c(F)cc(OC(F)F)cc2F)[C@H]2CC[C@@H]1N2c1nnn[nH]1 (single isomer, unassigned) [61A*]",
    "tgt": "human NLRP3 (Homo sapiens, UniProt Q96P20)",
    "IC50": "< 1 µM"
  },
  {
    "molecule": "C[C@H]1C[C@H](NC(=O)N(C)c2ccc(OC(F)(F)F)cc2F)[C@@H]2CC[C@H]1N2c1nnn[nH]1 (single isomer, unassigned) [56D*]",
    "tgt": "human NLRP3 (Homo sapiens, UniProt Q96P20)",
    "IC50": "1 to 10 µM"
  }
]
